# assay_overview: physchem
# condition_notes: pH 2.84, saline or isotonic, thermodynamic from solid
observed_property: solubility at 2 weeks (µg/mL)
Answers are plain numbers, in µg/mL.

For the compound CC(C)(C)[C@@H](CC(=O)O)Nc1nc(-c2c[nH]c3ncc(F)cc23)ncc1F [Hydrate 1 of Compound (1)] , what solubility at 2 weeks is on record?
57

* * *

# Test system: A/Wisconsin/67/2005
# assay_overview: 3-day CP assay in MDCK cells
# Assay type: cell-based
# condition_notes: Influenza A virus
observed_property: EC50 (nM)
One number for each entry, in nM.

Solved entries (count: 2):
CC(C)(C)[C@@H](CC(=O)O)Nc1nc(-c2c[nH]c3ncc(F)cc23)ncc1F :: 3.7
CC(=O)N[C@H]1[C@H]([C@H](O)[C@H](O)CO)OC(C(=O)O)=C[C@@H]1N=C(N)N :: 160

Value lookup for EC50; key = CCC(CC)O[C@@H]1C=C(C(=O)O)C[C@H](N)[C@H]1NC(C)=O [Oseltamivir Carboxylate]
350

* * *

# assay_overview: physchem
# condition_notes: pH 5.96, saline or isotonic, thermodynamic from solid
observed_property: solubility at 2 weeks (µg/mL)
Numbers only, in µg/mL.

Using the record for CC(C)(C)[C@@H](CC(=O)O)Nc1nc(-c2c[nH]c3ncc(F)cc23)ncc1F [Hydrate 1 of Compound (1)] , report its solubility at 2 weeks.
78

* * *

# assay_overview: physchem
# condition_notes: pH 5.78, aqueous with cosolvent or surfactant or cyclodextrin, thermodynamic from solid
observed_property: solubility at 5 days (µg/mL)
Answers are plain numbers, in µg/mL.

Record request: solubility at 5 days value, item CC(C)(C)[C@@H](CC(=O)O)Nc1nc(-c2c[nH]c3ncc(F)cc23)ncc1F [Hydrate 1 of Compound (1)]
1020

* * *

# System: A/New York/18/2009
# assay_overview: 3-day CP assay in MDCK cells
# Type: cell-based
# condition_notes: Influenza A virus
For each record, write down the corresponding EC50.
Numbers only, in µM.

Some molecules with known EC50 results, for comparison:
CC(=O)N[C@H]1[C@H]([C@H](O)[C@H](O)CO)OC(C(=O)O)=C[C@@H]1N=C(N)N [Zanamivir] :: 0.31
NC(=O)c1nc(F)c[nH]c1=O [Compound T-705, favipiravir] :: 1.3
CC(C)(C)[C@@H](CC(=O)O)Nc1nc(-c2c[nH]c3ncc(F)cc23)ncc1F [Compound (1)] :: 0.0014

Next item in the queue.
Requested read-out: EC50. Entry: CCC(CC)O[C@@H]1C=C(C(=O)O)C[C@H](N)[C@H]1NC(C)=O [Oseltamivir Carboxylate]
0.16

* * *

# assay_overview: physchem
# condition_notes: pH 4.15, aqueous with cosolvent or surfactant or cyclodextrin, thermodynamic from solid
observed_property: solubility at 5 days (µg/mL)
Numbers only, in µg/mL.

May I ask what solubility at 5 days has been recorded for CC(C)(C)[C@@H](CC(=O)O)Nc1nc(-c2c[nH]c3ncc(F)cc23)ncc1F [Hydrate 1 of Compound (1)] ?
1150

* * *

# System: B/Mass/3/66
# assay_overview: 3-day CP assay in MDCK cells
# Type: cell-based
# condition_notes: Influenza B virus
Hi there, I'd appreciate the recorded EC50 for every entry that follows.
Numbers only, in µM.

NC(=O)c1nc(F)c[nH]c1=O :: 3.4

Recorded EC50 for CCC(CC)O[C@@H]1C=C(C(=O)O)C[C@H](N)[C@H]1NC(C)=O [Oseltamivir Carboxylate] , please?
6.7

* * *

# Test system: A/Victoria/3/75
# assay_overview: 3-day CP assay in MDCK cells
# Format: cell-based
# condition_notes: Influenza A virus
observed_property: EC50

NC12CC3CC(CC(C3)C1)C2 :: 8.6 µM
CCC(CC)O[C@@H]1C=C(C(=O)O)C[C@H](N)[C@H]1NC(C)=O [Oseltamivir Carboxylate] :: > 10 µM
CC(=O)N[C@H]1[C@H]([C@H](O)[C@H](O)CO)OC(C(=O)O)=C[C@@H]1N=C(N)N :: 4.1 µM

Quick one: give me EC50 for each item below, same order please.
1. CC(C)(C)[C@@H](CC(=O)O)Nc1nc(-c2c[nH]c3ncc(F)cc23)ncc1F
2. NC(=O)c1nc(F)c[nH]c1=O

1. 0.0021 µM
2. > 10 µM

* * *

# assay_overview: physchem
# condition_notes: pH 5.74, aqueous with cosolvent or surfactant or cyclodextrin, thermodynamic from solid
observed_property: solubility at 5 days (µg/mL)
Numbers only, in µg/mL.

Quick check: solubility at 5 days of CC(C)(C)[C@@H](CC(=O)O)Nc1nc(-c2c[nH]c3ncc(F)cc23)ncc1F [Hydrate 1 of Compound (1)] ?
289

* * *

# assay_overview: physchem
# condition_notes: pH 3.56, aqueous with cosolvent or surfactant or cyclodextrin, thermodynamic from solid
observed_property: solubility at 5 days (µg/mL)
Give bare numbers, in µg/mL.

Which measured solubility at 5 days value corresponds to CC(C)(C)[C@@H](CC(=O)O)Nc1nc(-c2c[nH]c3ncc(F)cc23)ncc1F [Hydrate 1 of Compound (1)] ?
285

* * *

# assay_overview: physchem
# condition_notes: pH 5.59, aqueous with cosolvent or surfactant or cyclodextrin, thermodynamic from solid
observed_property: solubility at 5 days
Write the numeric value and follow it with the unit.

Any idea what its solubility at 5 days is? The molecule is CC(C)(C)[C@@H](CC(=O)O)Nc1nc(-c2c[nH]c3ncc(F)cc23)ncc1F [Hydrate 1 of Compound (1)]
152 µg/mL

* * *

# assay_overview: physchem
# condition_notes: pH 1.55, fassgf or other biorelevant, thermodynamic from solid
observed_property: solubility at 5 days (µg/mL)
Answers are plain numbers, in µg/mL.

Returns the measured solubility at 5 days for the input compound. Input: CC(C)(C)[C@@H](CC(=O)O)Nc1nc(-c2c[nH]c3ncc(F)cc23)ncc1F [Hydrate 1 of Compound (1)]
2660

* * *

# assay_overview: physchem
# condition_notes: pH 8.13, saline or isotonic, thermodynamic from solid
observed_property: solubility at 2 weeks (µg/mL)
Answers are plain numbers, in µg/mL.

I have this compound here, CC(C)(C)[C@@H](CC(=O)O)Nc1nc(-c2c[nH]c3ncc(F)cc23)ncc1F [Hydrate 1 of Compound (1)] , and I need its recorded solubility at 2 weeks.
4830

* * *

# assay_overview: physchem
# condition_notes: pH 6.17, aqueous with cosolvent or surfactant or cyclodextrin, thermodynamic from solid
observed_property: solubility at 5 days (mg/mL)
One number for each entry, in mg/mL.

Could you share which solubility at 5 days value was measured for CC(C)(C)[C@@H](CC(=O)O)Nc1nc(-c2c[nH]c3ncc(F)cc23)ncc1F [Hydrate 1 of Compound (1)] ?
0.12

* * *

# assay_overview: physchem
# condition_notes: pH 5.97, aqueous with cosolvent or surfactant or cyclodextrin, thermodynamic from solid
observed_property: solubility at 5 days (µg/mL)
Answers are plain numbers, in µg/mL.

Item CC(C)(C)[C@@H](CC(=O)O)Nc1nc(-c2c[nH]c3ncc(F)cc23)ncc1F [Hydrate 1 of Compound (1)] has what recorded solubility at 5 days?
272

* * *

# assay_overview: physchem
# condition_notes: pH 7.73, saline or isotonic, thermodynamic from solid
observed_property: solubility at 2 weeks (µg/mL)
Give bare numbers, in µg/mL.

Fill blank: measured solubility at 2 weeks of the molecule CC(C)(C)[C@@H](CC(=O)O)Nc1nc(-c2c[nH]c3ncc(F)cc23)ncc1F [Hydrate 1 of Compound (1)] is ____.
2240

* * *

# System: A/FM/1/47
# assay_overview: 3-day CP assay in MDCK cells
# Format: cell-based
# condition_notes: Influenza A virus
Kindly supply the reported pEC50 values for the records listed here.
Give bare numbers, as −log10 of the molar value.

CC(=O)N[C@H]1[C@H]([C@H](O)[C@H](O)CO)OC(C(=O)O)=C[C@@H]1N=C(N)N :: 5.59
NC12CC3CC(CC(C3)C1)C2 :: 6.18
CC(C)(C)[C@@H](CC(=O)O)Nc1nc(-c2c[nH]c3ncc(F)cc23)ncc1F :: 8.82
CCC(CC)O[C@@H]1C=C(C(=O)O)C[C@H](N)[C@H]1NC(C)=O [Oseltamivir Carboxylate] :: 5.19

Would you kindly look at the next entry?
Query: pEC50; subject: NC(=O)c1nc(F)c[nH]c1=O
5.35

* * *

# assay_overview: physchem
# condition_notes: pH 4.17, aqueous with cosolvent or surfactant or cyclodextrin, thermodynamic from solid
observed_property: solubility at 5 days (µg/mL)
Answers are plain numbers, in µg/mL.

Fill in: solubility at 5 days of CC(C)(C)[C@@H](CC(=O)O)Nc1nc(-c2c[nH]c3ncc(F)cc23)ncc1F [Hydrate 1 of Compound (1)] is ___
1640

* * *

# assay_overview: physchem
# condition_notes: pH 7.42, aqueous buffer, thermodynamic from solid
observed_property: solubility at 5 days (µg/mL)
Numbers only, in µg/mL.

Reported solubility at 5 days, compound CC(C)(C)[C@@H](CC(=O)O)Nc1nc(-c2c[nH]c3ncc(F)cc23)ncc1F [Hydrate 1 of Compound (1)] : ____
7620
